Tested on: RPMI-8226 leukemia
Experiment: NCI tumour cell line growth inhibition, 48 h
recordedEndpoint: TGI

compound=Cc1cc2c(=O)[nH]c(N)nc2nc1C recordedmeasurement="> 100 µM"

Prompt: Would you mind telling me what TGI value was observed for O=C1CCCC[C@H]1C(O)CC1CC(=O)N(c2ccccc2)C(=O)C1 (some centres not stated) ?
Response: > 100 µM

Prompt: Would you mind telling me what TGI value was observed for "NC(C(=O)OC(=O)c1ccccc1)C(=O)OC(=O)c1ccccc1" ?
Response: > 100 µM

Prompt: Would you mind telling me what TGI value was observed for "CN(C)CCOc1ccc(-c2cc(-c3ccc4c(c3)CC/C4=N\O)c(-c3ccncc3)o2)cc1" ?
Response: 10.7 µM

Prompt: Would you mind telling me what TGI value was observed for "Brc1ccc(-c2cc(-c3ccc4c(c3)OCO4)c(-c3cccs3)n2Cc2ccccc2)cc1" ?
Response: > 100 µM

Prompt: Would you mind telling me what TGI value was observed for "COc1ccc(Oc2cc(NCCC(F)(F)F)c3ncc(-c4ccc(C(=O)NC5CC5)c(C)c4)n3n2)c(F)c1F" ?
Response: > 100 µM
